Target: CD3ε homodimer protein (human, UniProt P07766 23-126, limits assumed)
Sequence (P07766 23-126 limits assumed): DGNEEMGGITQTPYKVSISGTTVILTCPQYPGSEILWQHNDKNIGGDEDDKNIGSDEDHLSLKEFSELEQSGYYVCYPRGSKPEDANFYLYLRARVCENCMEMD
Experiment: SPR, immobilized CD3ε homodimer;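 further: biacore T200 surface plasmon resonance at 25 °C, antibody variants flowed as analytes over amine-coupled CD3ε homodimer on a CM4 chip, variant binding amount divided by that of GLS3000 antibody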
Records here are stratified by ratio of amounts bound (vs GLS3000); strata: lo = under 0.4, mid = from 0.4 up to 0.8, hi = 0.8 and over

INSERT INTO assay_data (binder, group) VALUES
  ('GLS3000 N28S (antibody, name in Kabat numbering, V domains shown, one-arm format as m2) VH: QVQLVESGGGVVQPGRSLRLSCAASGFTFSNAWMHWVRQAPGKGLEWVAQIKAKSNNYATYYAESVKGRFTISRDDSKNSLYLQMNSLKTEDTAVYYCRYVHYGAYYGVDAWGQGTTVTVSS VL: DIVMTQSPLSLPVTPGEPASISCRSSQSLVHSSRNTYLHWYQQKPGQAPRLLIYKVSNRFSGVPDRFSGSGSGTDFTLKISRVEAEDVGVYYCGQGTQVPYTFGQGTKLEIK', 'lo');

Textbook exercise: identify the category of the binder given here, GLS3000 R24E (antibody, name in Kabat numbering, V domains shown, one-arm format as m2) VH: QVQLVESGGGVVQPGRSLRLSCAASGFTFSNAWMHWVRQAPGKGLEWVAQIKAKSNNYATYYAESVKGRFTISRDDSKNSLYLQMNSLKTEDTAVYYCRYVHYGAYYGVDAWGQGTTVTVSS VL: DIVMTQSPLSLPVTPGEPASISCESSQSLVHSNRNTYLHWYQQKPGQAPRLLIYKVSNRFSGVPDRFSGSGSGTDFTLKISRVEAEDVGVYYCGQGTQVPYTFGQGTKLEIK , according to its measured value.
hi

Could you tell me which band GLS3000 H27dQ (antibody, name in Kabat numbering, V domains shown, one-arm format as m2) VH: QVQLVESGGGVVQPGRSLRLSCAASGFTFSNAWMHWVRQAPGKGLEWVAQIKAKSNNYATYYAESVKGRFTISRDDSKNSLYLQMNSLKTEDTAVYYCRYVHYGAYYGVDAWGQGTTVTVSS VL: DIVMTQSPLSLPVTPGEPASISCRSSQSLVQSNRNTYLHWYQQKPGQAPRLLIYKVSNRFSGVPDRFSGSGSGTDFTLKISRVEAEDVGVYYCGQGTQVPYTFGQGTKLEIK belongs to?
lo

Lab log: GLS3000 N30E (antibody, name in Kabat numbering, V domains shown, one-arm format as m2) VH: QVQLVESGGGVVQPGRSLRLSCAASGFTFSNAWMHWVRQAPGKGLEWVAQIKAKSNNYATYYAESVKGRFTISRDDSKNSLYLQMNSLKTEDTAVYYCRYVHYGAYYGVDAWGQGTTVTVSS VL: DIVMTQSPLSLPVTPGEPASISCRSSQSLVHSNRETYLHWYQQKPGQAPRLLIYKVSNRFSGVPDRFSGSGSGTDFTLKISRVEAEDVGVYYCGQGTQVPYTFGQGTKLEIK — assign ratio of amounts bound (vs GLS3000) category
mid

Sort into band: GLS3000 N30H (antibody, name in Kabat numbering, V domains shown, one-arm format as m2) VH: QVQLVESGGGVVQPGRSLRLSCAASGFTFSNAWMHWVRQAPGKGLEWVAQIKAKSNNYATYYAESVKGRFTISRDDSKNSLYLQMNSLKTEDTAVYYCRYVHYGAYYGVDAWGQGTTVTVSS VL: DIVMTQSPLSLPVTPGEPASISCRSSQSLVHSNRHTYLHWYQQKPGQAPRLLIYKVSNRFSGVPDRFSGSGSGTDFTLKISRVEAEDVGVYYCGQGTQVPYTFGQGTKLEIK
hi

Hi, small favor: classify GLS3000 S27eQ (antibody, name in Kabat numbering, V domains shown, one-arm format as m2) VH: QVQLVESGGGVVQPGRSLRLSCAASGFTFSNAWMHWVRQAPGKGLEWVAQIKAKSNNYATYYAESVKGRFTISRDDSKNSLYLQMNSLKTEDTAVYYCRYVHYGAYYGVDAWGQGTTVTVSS VL: DIVMTQSPLSLPVTPGEPASISCRSSQSLVHQNRNTYLHWYQQKPGQAPRLLIYKVSNRFSGVPDRFSGSGSGTDFTLKISRVEAEDVGVYYCGQGTQVPYTFGQGTKLEIK by its ratio of amounts bound (vs GLS3000) when you get a moment.
hi

Which bin should I file GLS3000 S27eI (antibody, name in Kabat numbering, V domains shown, one-arm format as m2) VH: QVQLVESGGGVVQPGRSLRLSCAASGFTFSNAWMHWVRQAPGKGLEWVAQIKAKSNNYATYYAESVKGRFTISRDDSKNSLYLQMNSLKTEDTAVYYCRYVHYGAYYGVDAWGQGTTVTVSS VL: DIVMTQSPLSLPVTPGEPASISCRSSQSLVHINRNTYLHWYQQKPGQAPRLLIYKVSNRFSGVPDRFSGSGSGTDFTLKISRVEAEDVGVYYCGQGTQVPYTFGQGTKLEIK under?
hi

Which band does GLS3000 L27bM (antibody, name in Kabat numbering, V domains shown, one-arm format as m2) VH: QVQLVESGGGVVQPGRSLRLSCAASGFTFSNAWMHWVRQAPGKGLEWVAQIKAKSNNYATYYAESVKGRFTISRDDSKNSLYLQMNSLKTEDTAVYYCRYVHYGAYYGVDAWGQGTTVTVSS VL: DIVMTQSPLSLPVTPGEPASISCRSSQSMVHSNRNTYLHWYQQKPGQAPRLLIYKVSNRFSGVPDRFSGSGSGTDFTLKISRVEAEDVGVYYCGQGTQVPYTFGQGTKLEIK fall in?
mid

For GLS3000 L33D (antibody, name in Kabat numbering, V domains shown, one-arm format as m2) VH: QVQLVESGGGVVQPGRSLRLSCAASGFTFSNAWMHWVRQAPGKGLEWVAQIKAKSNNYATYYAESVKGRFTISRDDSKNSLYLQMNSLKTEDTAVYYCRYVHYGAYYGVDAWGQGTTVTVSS VL: DIVMTQSPLSLPVTPGEPASISCRSSQSLVHSNRNTYDHWYQQKPGQAPRLLIYKVSNRFSGVPDRFSGSGSGTDFTLKISRVEAEDVGVYYCGQGTQVPYTFGQGTKLEIK , which ratio of amounts bound (vs GLS3000) bin applies?
lo
